Ref: patent US11319324B2

# Target Of Assay: human P2X2/3 receptors (Homo sapiens, UniProt P56373+Q9UBL9)
# Construct: expressed in transfected cells; host or cells: human astrocytoma 1321N1 (1312N1 [sic])
# Sequence (P56373 1-397): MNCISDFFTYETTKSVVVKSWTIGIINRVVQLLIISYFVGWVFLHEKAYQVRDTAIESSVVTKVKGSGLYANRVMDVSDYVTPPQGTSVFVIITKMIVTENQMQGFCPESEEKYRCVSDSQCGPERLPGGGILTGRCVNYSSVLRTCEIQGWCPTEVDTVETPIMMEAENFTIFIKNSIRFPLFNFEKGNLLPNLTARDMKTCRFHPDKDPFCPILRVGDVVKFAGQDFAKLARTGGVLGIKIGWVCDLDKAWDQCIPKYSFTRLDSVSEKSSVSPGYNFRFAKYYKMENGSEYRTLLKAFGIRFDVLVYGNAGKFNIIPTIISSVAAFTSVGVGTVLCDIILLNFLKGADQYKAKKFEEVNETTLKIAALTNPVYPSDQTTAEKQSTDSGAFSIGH
# Sequence (Q9UBL9 1-471): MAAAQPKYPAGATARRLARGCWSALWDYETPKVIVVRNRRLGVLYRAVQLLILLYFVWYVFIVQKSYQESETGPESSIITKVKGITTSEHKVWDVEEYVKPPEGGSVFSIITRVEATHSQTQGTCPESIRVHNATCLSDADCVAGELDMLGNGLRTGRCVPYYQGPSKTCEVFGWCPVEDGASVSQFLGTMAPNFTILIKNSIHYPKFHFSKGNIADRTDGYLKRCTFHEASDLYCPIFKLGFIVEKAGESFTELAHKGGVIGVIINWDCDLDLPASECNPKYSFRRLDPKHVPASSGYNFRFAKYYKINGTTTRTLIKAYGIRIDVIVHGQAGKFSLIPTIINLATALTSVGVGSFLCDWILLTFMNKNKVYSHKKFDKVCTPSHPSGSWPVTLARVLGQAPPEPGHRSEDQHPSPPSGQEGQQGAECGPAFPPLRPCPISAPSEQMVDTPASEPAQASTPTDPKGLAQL
# Assay Comment: Intracellular calcium measurement, antagonist activity at human P2X2/3 receptors (hP2X23 1321N1), Fluo8
# Type: cell-based
# Run Parameters: ratio of column 4) hP2X2/3 to column 3) hP2X3, 1321N1
In this section, each of the compounds is paired with its reported hP2X23/hP2X3* Selectivity (1321N1).
Just the number, please, no unit after it.

See these solved cases before continuing.
Compound	Assay Metric	Reported Measurement
COC[C@H](C)N1Cc2c(n(CC(=O)Nc3ccc(F)cn3)c3cc(-c4cc(C)ncc4C)nn3c2=O)C1=O	hP2X23/hP2X3* Selectivity (1321N1)	424
CCc1cc2n(CC(=O)Nc3ccc(F)cn3)c3c(c(=O)n2n1)CN([C@@H](C)COC)C3=O	hP2X23/hP2X3* Selectivity (1321N1)	385
CCc1cc2n(CC(=O)Nc3ccc(F)cn3)c3c(c(=O)n2n1)CN(C1CCNC1)C3=O (single isomer, unassigned) [Example 277]	hP2X23/hP2X3* Selectivity (1321N1)	66

Qu. I'm curious: which hP2X23/hP2X3* Selectivity (1321N1) was measured for `COC[C@H](C)N1Cc2c(n(CC(=O)Nc3ccc(F)cn3)c3cc(C(C)C)nn3c2=O)C1=O` tested on human P2X2/3 receptors (Homo sapiens, UniProt P56373+Q9UBL9)?
Ans. 308
